Consider the following compounds; for each one, report its pIC50.
- Tested on: human PD-1 / PD-L1-Ig binding on Jurkat cell line over-expressing human PD-1 (Jurkat-PD-1) (Homo sapiens, UniProt Q15116)
- Construct: expressed in transfected cells; host or cells: Jurkat
- Sequence (Q15116 25-288): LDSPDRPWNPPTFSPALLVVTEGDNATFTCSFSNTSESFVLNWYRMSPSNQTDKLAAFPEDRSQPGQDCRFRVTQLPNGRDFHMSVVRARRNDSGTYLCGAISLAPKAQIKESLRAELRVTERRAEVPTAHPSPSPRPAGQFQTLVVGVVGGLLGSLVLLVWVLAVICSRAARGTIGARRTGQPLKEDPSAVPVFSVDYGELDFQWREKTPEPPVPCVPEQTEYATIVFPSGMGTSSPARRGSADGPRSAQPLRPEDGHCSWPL
- Assay method text: Jurkat-PD-1 Cell Binding High-Content Screening Assay (CBA)
- Type: cell-based
- Test context: Jurkat-PD-1 cells, PE-labeled PD-L1-Ig 20 nM final; read-out: Jurkat HPD1_PDL1 IC50
One number for each entry, as −log10 of the molar value.

Chemical structure | pIC50
Cc1cccc(C[C@@H]2NC(=O)[C@H](CC(=O)O)NC(=O)[C@H](Cc3ccc(OCC(=O)O)cc3)NC(=O)[C@H](CN)NC(=O)CSC[C@@H](C(=O)N[C@@H](C)C(N)=O)NC(=O)[C@H]([C@@H](C)O)NC(=O)[C@H](C(C)C)NC(=O)[C@H](CC3CCCCC3)NC(=O)[C@H](CCN)NC(=O)[C@@H](CC(C)C)NC(=O)[C@H](CCCN)NC(=O)[C@H](CCC(=O)O)NC(=O)[C@H](Cc3ccc(-c4ccccc4)cc3)NC(=O)[C@H](C(C)C)NC2=O)c1 | 8.21

Give me measured pIC50, please, for this compound: CC(C)C[C@H]1NC(=O)[C@H](CCCN)NC(=O)[C@H](C(C)C)NC(=O)[C@H](Cc2ccc(-c3ccccc3)cc2)NC(=O)[C@H](C(C)C)NC(=O)[C@H](Cc2c[nH]c3ccccc23)NC(=O)[C@H](CC(=O)O)NC(=O)[C@H](Cc2ccc(OCC(=O)O)cc2)NC(=O)[C@H](Cc2ccc(OCC(=O)O)cc2)NC(=O)CSC[C@@H](C(=O)N[C@@H](C)C(N)=O)NC(=O)[C@H]([C@@H](C)O)NC(=O)[C@H](C(C)C)NC(=O)[C@H](CC2CCCCC2)NC(=O)[C@H](CCN)NC1=O
7.91

* * *

- Tested on: human PD-1 / PD-L1-Ig binding on Jurkat cell line over-expressing human PD-1 (Jurkat-PD-1) (Homo sapiens)
- Construct: expressed in transfected cells; host or cells: Jurkat
- Assay method text: Jurkat-PD-1 Cell Binding High-Content Screening Assay (CBA)
- Format: cell-based
- Test context: Jurkat HPD1_PDL1 IC50, Jurkat-PD-1 cells, PE-labeled PD-L1-Ig 20 nM final
Readout: IC50
Put your answer as a value accompanied by its unit after it.

Chemical structure | IC50
CC[C@H](C)[C@@H]1NC(=O)[C@H](Cc2ccc(-c3ccccc3)cc2)NC(=O)[C@H](C(C)C)NC(=O)[C@H](Cc2cccc(C)c2)NC(=O)[C@H](CC(=O)O)NC(=O)[C@H](Cc2ccc(OCC(=O)O)cc2)NC(=O)[C@H](Cc2cccnc2)NC(=O)CSC[C@@H](C(=O)N[C@@H](C)C(N)=O)NC(=O)[C@H]([C@@H](C)O)NC(=O)[C@H](C(C)C)NC(=O)[C@H](CC(C)C)NC(=O)[C@H](CCN)NC(=O)[C@@H](CC(C)C)NC(=O)[C@H](CCCN)NC1=O | 11.3 nM

Please examine the following record next.
Report IC50, nothing else, for this compound: CC(C)C[C@H]1NC(=O)[C@H](CCCN)NC(=O)[C@H](C(C)C)NC(=O)[C@H](Cc2ccc(-c3ccccc3)cc2)NC(=O)[C@H](C(C)C)NC(=O)[C@H](Cc2c[nH]c3ccccc23)NC(=O)[C@H](CC(=O)O)NC(=O)[C@H](Cc2ccc(OCC(=O)O)cc2)NC(=O)[C@H](Cc2ccc(OCc3ccccc3)cc2)NC(=O)CSC[C@@H](C(=O)N[C@@H](C)C(N)=O)NC(=O)[C@H]([C@@H](C)O)NC(=O)[C@H](C(C)C)NC(=O)[C@H](CC2CCCCC2)NC(=O)[C@H](CCN)NC1=O
103 nM

* * *

- Tested on: human PD-1 / PD-L1-Ig binding on Jurkat cell line over-expressing human PD-1 (Jurkat-PD-1) (Homo sapiens)
- Construct: expressed in transfected cells; host or cells: Jurkat
- Assay method text: Jurkat-PD-1 Cell Binding High-Content Screening Assay (CBA)
- Type: cell-based
- Test context: Jurkat-PD-1 cells, PE-labeled PD-L1-Ig 20 nM final; read-out: Jurkat HPD1_PDL1 IC50
- Procedure: Example 3. Jurkat-PD-1 Cell Binding High-Content Screening Assay (CBA) Jurkat-PD-1 Cell Binding High-Content Screening Assay (CBA). Phycoerythrin (PE) was covalently linked to the Ig epitope tag of human PD-L1-Ig and fluorescently-labeled PD-L1-Ig was used for binding studies with a Jurkat cell line over-expressing human PD-1 (Jurkat-PD-1). Briefly, 8×10^3 Jurkat-hPD-1 cells were seeded into 384 well plates in 20 μl of DMEM supplemented with 10% fetal calf serum. […]
Where a SMILES comes first, the peptide text is derived from it. Bridges are numbered along the chain shown (N, C = ends). [ ]: non-standard residue; d: D form. Bip = N[C@@H](Cc1ccc(-c2ccccc2)cc1)C(=O)O; Cha = N[C@@H](CC1CCCCC1)C(=O)O; Orn = NCCC[C@H](N)C(=O)O; Dap = NC[C@H](N)C(=O)O
Give measured IC50 for each item. Keep answers brief.
Answers are plain numbers, in nM.

Molecule | IC50 / nM
CC(C)C[C@@H]1NC(=O)[C@H](Cc2c[nH]c3ccccc23)NC(=O)[C@H](CC(=O)O)NC(=O)[C@H](Cc2ccc(O)cc2)NC(=O)[C@H](Cc2ccccc2)NC(=O)CSC[C@@H](C(=O)N[C@@H](C)C(N)=O)NC(=O)[C@H](CO)NC(=O)[C@H](C(C)C)NC(=O)[C@H](CC(C)C)NC(=O)[C@H](CC(N)=O)NC(=O)[C@@H](CC(C)C)NC(=O)[C@H](CCCN)NC(=O)[C@H](CCC(=O)O)NC(=O)[C@H](Cc2ccc(-c3ccccc3)cc2)NC1=O [Compound 1235] ({CH2CO}-FYDWL[Bip]E[Orn][dL]NLVSCA-NH2; thioether N-14) | 21
CCC(C)[C@@H]1NC(=O)[C@H](Cc2ccc(-c3ccccc3)cc2)NC(=O)[C@H](C(C)C)NC(=O)[C@H](Cc2cc(C)ccc2OC)NC(=O)[C@H](CC(=O)O)NC(=O)[C@H](Cc2ccc(OCC(=O)O)cc2)NC(=O)[C@H](CN)NC(=O)CSC[C@@H](C(=O)N[C@@H](C)C(N)=O)NC(=O)[C@H]([C@@H](C)O)NC(=O)[C@H](C(C)C)NC(=O)[C@H](CC2CCCCC2)NC(=O)[C@H](CCN)NC(=O)[C@@H](CC(C)C)NC(=O)[C@H](CCCN)NC1=O (stereo partly shown) [Compound 2249] | 134
CC(C)C[C@@H]1NC(=O)[C@H](Cc2c[nH]c3ccccc23)NC(=O)[C@H](CC(=O)O)NC(=O)[C@H](Cc2ccc(O)cc2)NC(=O)[C@H](Cc2ccccc2)NC(=O)CSC[C@@H](C(=O)NCC(N)=O)NC(=O)[C@H](CO)NC(=O)[C@H](C(C)C)NC(=O)[C@H](CC2CCCCC2)NC(=O)[C@H](CC(N)=O)NC(=O)[C@@H](CC(C)C)NC(=O)[C@H](CN)NC(=O)[C@H](C(C)C)NC(=O)[C@H](Cc2ccc(-c3ccccc3)cc2)NC1=O [Compound 1392] ({CH2CO}-FYDWL[Bip]V[Dap][dL]N[Cha]VSCG-NH2; thioether N-14) | 78.1

Okay, next one:
Read off the recorded IC50 for CC(C)C[C@H]1NC(=O)[C@H](CCCN)NC(=O)[C@H](CCCNC(N)=O)NC(=O)[C@H](Cc2ccc(-c3ccccc3)cc2)NC(=O)[C@H](C(C)C)NC(=O)[C@H](Cc2c[nH]c3ccccc23)NC(=O)[C@H](CC(=O)O)NC(=O)[C@H](CCc2ccncc2)NC(=O)[C@H](CN)NC(=O)CSC[C@@H](C(=O)N[C@@H](C)C(N)=O)NC(=O)[C@H]([C@@H](C)O)NC(=O)[C@H](C(C)C)NC(=O)[C@H](CC2CCCCC2)NC(=O)[C@H](CCN)NC1=O [Compound 2104]
18.2

* * *

- Tested on: human PD-1 / PD-L1-Ig binding on Jurkat cell line over-expressing human PD-1 (Jurkat-PD-1) (Homo sapiens)
- Construct: expressed in transfected cells; host or cells: Jurkat
- Assay method text: Jurkat-PD-1 Cell Binding High-Content Screening Assay (CBA)
- Type: cell-based
- Test context: Jurkat-PD-1 cells, PE-labeled PD-L1-Ig 20 nM final; read-out: Jurkat HPD1_PDL1 IC50
Where a SMILES comes first, the peptide text is derived from it. Bridges are numbered along the chain shown (N, C = ends). [ ]: non-standard residue; d: D form. Bip = N[C@@H](Cc1ccc(-c2ccccc2)cc1)C(=O)O; Orn = NCCC[C@H](N)C(=O)O; Dab = NCC[C@H](N)C(=O)O
Kindly supply the reported IC50 values for the records listed here.
Answers are plain numbers, in nM.

Please state IC50 for every compound in the list that follows.
1. CC[C@H](C)[C@@H]1NC(=O)[C@H](Cc2ccc(-c3ccccc3)cc2)NC(=O)[C@H](C(C)C)NC(=O)[C@H](Cc2c[nH]c3ccccc23)NC(=O)[C@H](CC(=O)O)NC(=O)[C@H](Cc2ccc(O)cc2)NC(=O)[C@H](CC(N)=O)NC(=O)CSC[C@@H](C(=O)N[C@@H](C)C(N)=O)NC(=O)[C@H]([C@@H](C)O)NC(=O)[C@H](C(C)C)NC(=O)[C@H](CC(C)C)NC(=O)[C@H](CCN)NC(=O)[C@@H](CC(C)C)NC(=O)[C@H](CCCCN)NC1=O [Compound 1039] ({CH2CO}-NYDWV[Bip]IK[dL][Dab]LVTCA-NH2; thioether N-14)
2. CC(C)C[C@H]1NC(=O)[C@H](CCCN)NC(=O)[C@H](CCC(=O)O)NC(=O)[C@H](Cc2ccc(-c3ccccc3)cc2)NC(=O)[C@H](C(C)C)NC(=O)[C@H](Cc2c[nH]c3ccccc23)NC(=O)[C@H](CC(=O)O)NC(=O)[C@H](Cc2ccc(OCC(=O)O)cc2)NC(=O)[C@H](CN)NC(=O)CSC[C@@H](C(=O)N[C@@H](C)C(N)=O)NC(=O)[C@H]([C@@H](C)O)NC(=O)[C@H](C(C)C)NC(=O)[C@H](CC2CCCCC2)NC(=O)[C@H](CCN)NC1=O
3. CC(C)C[C@@H]1NC(=O)[C@H](Cc2c[nH]c3ccccc23)NC(=O)[C@H](CC(=O)O)NC(=O)[C@H](Cc2ccc(O)cc2)NC(=O)[C@H](Cc2ccccc2)NC(=O)CSC[C@@H](C(=O)N[C@@H](C)C(N)=O)NC(=O)[C@H]([C@@H](C)O)NC(=O)[C@H](C(C)C)NC(=O)[C@H](CC(C)C)NC(=O)[C@H](CCN)NC(=O)[C@@H](CC(C)C)NC(=O)[C@H](CCCN)NC(=O)[C@H](C(C)C)NC(=O)[C@H](Cc2ccc(-c3ccccc3)cc2)NC1=O [Compound 1072] ({CH2CO}-FYDWL[Bip]V[Orn][dL][Dab]LVTCA-NH2; thioether N-14)
4. Cc1cccc(C[C@@H]2NC(=O)[C@H](CC(=O)O)NC(=O)[C@H](Cc3ccc(OCC(=O)O)cc3)NC(=O)[C@H](Cc3ccncc3)NC(=O)CSC[C@@H](C(=O)N[C@@H](C)C(N)=O)NC(=O)[C@H]([C@@H](C)O)NC(=O)[C@H](C(C)C)NC(=O)[C@H](CC3CCCCC3)NC(=O)[C@H](Cc3cnc[nH]3)NC(=O)[C@@H](CC(C)C)NC(=O)[C@H](CCCN)NC(=O)[C@H](C(C)C)NC(=O)[C@H](Cc3ccc(-c4ccccc4)cc3)NC(=O)[C@H](C(C)C)NC2=O)c1

1. 12.1
2. 16.8
3. 27.1
4. 25.4
